Catalogue of GI50 readings, one per entry.
Tested on: SK-MEL-2
Protocol Details: NCI tumour cell line growth inhibition, 48 h
The source made the active and inactive calls. No stated cut-off is given here; in the data, active = GI50 up to about 1.1 µM and inactive = higher.

# input Query (compound): C=CC1(C)CC(=O)C2(O)C(C)(O1)C(OC(C)=O)C(O)C1C(C)(C)CCC(O)C12C (stereo not given) ; field requested: GI50
# output > 143 µM (inactive)

# input Also COC1=C2CC(C)CC(OC)[C@@H](OC(=O)CCN)[C@H](C)/C=C(\C)C(OC(N)=O)C(OC)/C=C\C=C(/C)C(=O)NC(=CC1=O)C2=O (stereo not given in full) ?
# output 9.06 µM (inactive)

* * *

# reported GI50; entries follow
Test system: EKVX
Protocol Details: NCI tumour cell line growth inhibition, 48 h
Activity calls are given as the source filed them. Cut-off read from the data, not from the text of the source: active = GI50 up to about 1.1 µM and inactive = higher.

{"columns": ["Molecule", "GI50"],
 "data": [
  ["COc1cc(/C=C/c2ccc(S(N)(=O)=O)cc2)cc(OC)c1", "22.4 µM (inactive)"],
  ["Oc1cc(Cl)ncn1", "> 100 µM (inactive)"],
  ["O=C1Nc2ccccc2/C1=N/N=c1\\cccc[nH]1", "14.5 µM (inactive)"],
  ["O=C(O)c1ccc(C(O)(c2ccccc2)c2ccccc2)cc1", "> 100 µM (inactive)"],
  ["CC1=C(C(=O)Nc2ccccc2)C(c2cc(Cl)cc(Cl)c2)C(C(=O)Nc2ccccc2)=C(C)N1", "17.4 µM (inactive)"]
]}

# input Requested read-out: GI50. Entry: C[n+]1ccc(/C2=C3\C=CC(=N3)/C(c3cc[n+](C)cc3)=c3/cc/c([nH]3)=C(\c3cc[n+](C)cc3)C3=N/C(=C(/c4cc[n+](C)cc4)C4C=CC2N4)C=C3)cc1
# output > 100 µM (inactive)

# input And what about the molecule CC1(C)C2CCC1(C)C(N/C(=C(/C(Cl)=C(Cl)Cl)[N+](=O)[O-])n1nnc3ccccc31)C2 (stereo not given) ?
# output 32.4 µM (inactive)

# input Cool, now O=C1CSC(c2cccc([N+](=O)[O-])c2)N1c1ccc(-n2c(-c3ccccc3)nc3ccccc3c2=O)cc1 (stereo not given)
# output > 100 µM (inactive)

# input Ok, now Cc1cc(C)n(C(=O)CSc2nc3ccc(I)cc3c(=O)n2Cc2ccccc2)n1
# output 24 µM (inactive)

# input What do we get for CCCC(CC)c1cc(O)c(O)cc1C(CC)CCC (stereo not given) ?
# output > 10 µM (inactive)

# input # repeat for O=c1[nH]c(=O)n(CCOCP(=O)(O)O)nc1Br
# output > 100 µM (inactive)

# input One more molecule: Cc1ccc(S(=O)(=O)Nn2c(C)cc3ccc(S(=O)(=O)Nc4ccccc4[N+](=O)[O-])cc3c2=O)cc1
# output 95.9 µM (inactive)

# input Likewise for CC(C)=CCC[C@@H](C)C1=CC(=O)C(C)=C(O)C1=O ?
# output 5.56 µM (inactive)

# input Moving on to Clc1ccc(C2=CC(c3ccccc3)N3C(=N[C@H]4CCCC[C@@H]43)N2)cc1 (stereo not given in full)
# output 4.47 µM (inactive)

# input How about CCN(CC)C(=S)SS(=O)(=O)c1ccc(C)cc1 ?
# output > 100 µM (inactive)

* * *

Test system: OVCAR-3
Protocol Details: NCI tumour cell line growth inhibition, 48 h
Active and inactive are the calls of the source. Cut-off read from the data, not from the text of the source: active = GI50 up to about 1.1 µM and inactive = higher.
Experimental Readout: GI50

// solved cases for GI50 follow
{"columns": ["Compound", "GI50"],
 "data": [
  ["C=C(C)C1CC/C(C)=C/CCC2(C)OC2CC/C(CO)=C\\C1O (centres undefined)", "> 100 µM (inactive)"],
  ["C=CCc1ccccc1CC1(OCC)OC(=O)c2ccccc21 (centres undefined)", "41.2 µM (inactive)"]
]}

# input Quick check: GI50 of Nc1ccccc1CC(O)C(=O)O (centres undefined) ?
# output > 100 µM (inactive)

# input Another compound to look at: CSC(SC)=C(C(=O)O)P(=O)(O)O
# output > 100 µM (inactive)

# input O=C(O)c1ccc(C(O)(c2ccccc2)c2ccccc2)cc1 ?
# output > 100 µM (inactive)

# input Repeat with CC(=O)C1C(=O)C(=O)N(c2cccc([N+](=O)[O-])c2)C1=O (centres undefined)
# output > 100 µM (inactive)

# input # iterate: CC(C)(C)c1cc(C(=O)O)c2c(c1)C(=O)OC2(c1ccccc1)c1ccccc1C(=O)O (centres undefined)
# output > 100 µM (inactive)

* * *

Tested on: MDA-MB-435
Protocol Details: NCI tumour cell line growth inhibition, 48 h
Active and inactive are the calls of the source. No stated cut-off is given here; in the data, active = GI50 up to about 1.1 µM and inactive = higher.
Experimental Readout: GI50

Observe how each entry below is paired with its result.
{"columns": ["Molecule", "GI50"],
 "data": [
  ["O=C(O)c1ccc(OCc2nc3cc(C(F)(F)F)ccc3nc2-c2ccccc2)cc1", "55.2 µM (inactive)"],
  ["C=C1C(=O)OC2C3C(=C)[C@@H](OC(C)=O)CC3C(C)=CC(OC(=O)C(C)(OC(C)=O)C(C)OC(C)=O)[C@@H]12 (stereo not given in full)", "13.5 µM (inactive)"],
  ["O=C1Nc2nnc(S)n2NC12c1ccccc1-c1ccccc12", "16.8 µM (inactive)"]
]}

# input Sample N=C(N)C1CN(CC=O)C(=O)NC1=O (stereo not given) — what was its GI50?
# output > 100 µM (inactive)

# input Next entry: O=[N+]([O-])c1cccc([N+](=O)[O-])c1S(=O)(=O)c1ccccc1
# output 3.61 µM (inactive)

* * *

GI50 values by entry
System: EKVX
Protocol Details: NCI tumour cell line growth inhibition, 48 h
Calls of active or inactive are those of the source. Cut-off read from the data, not from the text of the source: active = GI50 up to about 1.1 µM and inactive = higher.

{"columns": ["Compound", "GI50"],
 "data": [
  ["OC(Cc1cccnc1)(c1ccccc1)c1ccccc1", "17.8 µM (inactive)"]
]}

# input Item CC(=O)C(=[N+]=[N-])C(=O)N1CCOC1=O has what recorded GI50?
# output > 10 µM (inactive)

# input Quick one: COc1cc2c(cc1OC)C(C(c1ccccc1)c1ccccc1)N(C)CC2 (stereo unspecified)
# output > 100 µM (inactive)

# input Try the compound CC1(C)N=C(N)N=C(N)N1c1cccc(OCc2cccc(N)c2)c1
# output > 88.3 µM (inactive)

# input Item: CC[C@@H]1C[C@@H](O)[C@@H]2[C@H](O)[C@H](O)CN2C1
# output > 100 µM (inactive)

# input Again, but for O=[N+]([O-])c1cccc([N+](=O)[O-])c1S(=O)(=O)c1ccccc1
# output 21.2 µM (inactive)

* * *

Tested on: SK-MEL-2
Protocol Details: NCI tumour cell line growth inhibition, 48 h
Calls of active or inactive are those of the source. Cut-off read from the data, not from the text of the source: active = GI50 up to about 1.1 µM and inactive = higher.
Experimental Readout: GI50

Answered examples (2):
{"columns": ["Compound", "Experimental System", "GI50"],
 "data": [
  ["C=CCNc1nc2c(N)ncnc2s1", "SK-MEL-2", "> 10 µM (inactive)"],
  ["O=[N+]([O-])c1c(/C=N/Nc2ccccc2)oc(-c2ccc3c(c2)OCO3)c1-c1ccc2c(c1)OCO2", "SK-MEL-2", "2.49 µM (inactive)"]
]}

Next up:
# input Need GI50 of CN(C)c1ccc(C2CC(c3ccc4ccccc4c3O)=NN2c2ccc([N+](=O)[O-])cc2[N+](=O)[O-])cc1 (stereo not drawn) , thanks.
# output 25.5 µM (inactive)

* * *

Tested on: KM12
Protocol Details: NCI tumour cell line growth inhibition, 48 h
Active and inactive are the calls of the source. Cut-off read from the data, not from the text of the source: active = GI50 up to about 1.1 µM and inactive = higher.
Entries and their GI50

# input Bench note: what GI50 did CCNC(=O)Nc1ccccn1 show?
# output > 100 µM (inactive)

* * *

System: ACHN
Protocol Details: NCI tumour cell line growth inhibition, 48 h
The source made the active and inactive calls. No stated cut-off is given here; in the data, active = GI50 up to about 1.1 µM and inactive = higher. Starred links: 1 amine or outer side, 2 acyl side, 3 side chain; linkers in the order of their positions; H or OH if unused. Positions of bridges follow the written chain, without caps; N, C: chain ends. Non-standard residues stand in square brackets, D forms with d. Residues, ends and D or L forms follow the SMILES beside them. Chains are numbered I, II in the order given. Actinocin(1to9) = Cc1c2oc3c(C)ccc(C(=O)[*:2])c3nc-2c(C(=O)[*:1])c(N)c1=O; aThr = C[C@H](O)[C@H](N)C(=O)O; NMeV = CN[C@H](C(=O)O)C(C)C; Sar = CNCC(=O)O
Respond using exactly one of the listed classes: active, inactive

Here are 4 compounds together with their reported answers.
{"columns": ["Compound", "Assigned Class"],
 "data": [
  ["Cc1c2oc3c(C)ccc(C(=O)N[C@@H]4C(=O)N[C@H](C(C)C)C(=O)N5CCC[C@H]5C(=O)N(C)CC(=O)N(C)[C@@H](C(C)C)C(=O)O[C@H]4C)c3nc-2c(C(=O)N[C@@H]2C(=O)N[C@H](C(C)C)C(=O)N3CCC[C@H]3C(=O)N(C)CC(=O)N(C)[C@@H](C(C)C)C(=O)O[C@H]2C)c(N)c1=O (I: [aThr][dV]P[Sar][NMeV] / II: [aThr][dV]P[Sar][NMeV]; ester I:1-I:C, II:1-II:C; linker I:N-II:N via Actinocin(1to9))", "active"],
  ["CCOC(=O)NC(Nc1ccc(OC(F)(F)F)cc1)(C(F)(F)F)C(F)(F)F", "inactive"],
  ["CC1=NN(C(=O)CC(=O)Nc2cccc(Cl)c2)C(=O)C1/N=N/c1ccc(S(N)(=O)=O)cc1 (stereo not given)", "inactive"],
  ["CC(=O)N(C(C)=O)n1c(Cc2ccc(Cl)cc2)n[nH]c1=O", "inactive"]
]}

# input Which result was noted for this compound in the test: CC[C@@H]1C[C@@H](O)[C@@H]2[C@H](O)[C@H](O)CN2C1
# output inactive
